# target system: T1, human CD19 (on Raji cells, CD19+ homo sapiens Burkitt's lymphoma) (human, UniProt P15391 20-556)
# T1 construct: whole, on cells; also called B-lymphocyte antigen CD19; B4
# T1 sequence (looked up): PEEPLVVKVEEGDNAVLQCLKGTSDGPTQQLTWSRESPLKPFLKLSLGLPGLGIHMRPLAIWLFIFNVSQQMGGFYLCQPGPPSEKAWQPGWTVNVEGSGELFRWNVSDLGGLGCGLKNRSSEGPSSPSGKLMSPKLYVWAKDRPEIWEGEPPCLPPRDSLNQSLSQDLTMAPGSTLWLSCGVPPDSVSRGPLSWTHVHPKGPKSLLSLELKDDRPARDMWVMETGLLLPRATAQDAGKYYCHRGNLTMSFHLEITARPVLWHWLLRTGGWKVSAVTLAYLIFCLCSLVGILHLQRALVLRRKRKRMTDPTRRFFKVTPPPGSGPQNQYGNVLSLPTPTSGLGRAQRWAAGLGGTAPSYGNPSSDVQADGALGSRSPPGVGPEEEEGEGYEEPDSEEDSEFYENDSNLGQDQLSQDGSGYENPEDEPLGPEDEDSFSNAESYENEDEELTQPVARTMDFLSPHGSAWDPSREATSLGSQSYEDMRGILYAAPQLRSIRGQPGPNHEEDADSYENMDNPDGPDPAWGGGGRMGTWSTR
# test description: flow cytometry titration on Raji cells, anti-His FITC; scFv at log(nM) 1.091515
# Method: In brief, Raji cells were cultured and harvested by centrifugation. About 3×10⁵ cells per well were washed with PBS twice and incubated in 200 μl of serial dilutions of scFvs for 30 minutes at 4° C. After washing with PBS, secondary antibody (5 μg/ml His Tag antibody [FITC]) was added to the cells and incubated for 30 minutes at 4° C. After washing with PBS, cells were analyzed for binding EC50 by using FACSCalibur™ and FlowJo software.
metric: geometric mean (FACS titration)
Give the figure by itself; no unit, no explanation.

The measured geometric mean (FACS titration) associated with NS-scFv (scFv, leader left out here) scFv: DIQMTQSPSSLSASVGDRVTITCRASQDISKYLNWYQQKPGKAVKLLIYHTSRLHSGVPSRFSGSGSGTDYTLTISSLQPEDIATYFCQQGNTLPYTFGGGTKLEIKGSTSGSGKPGSGEGSTKGQVQLQESGPGLVKPSETLSVTCTVSGVSLPDYGVSWIRQPPGKGLEWLGVIWGSETTYYNSALKSRLTISKDTSKNQVFLKMSSLTAADTAIYYCAKHYYYGGSYAMDYWGQGTLVTVSSHHHHHH reads 15.1

The measured geometric mean (FACS titration) associated with AS-scFv (scFv, leader left out here) scFv: DIQMTQSPSTLSASVGDRVTITCRASQDISKYLNWYQQKPDQAPKLLIKHTSRLHSGVPSRFSGSGSGTDFTFTISSLQPEDIATYYCQQGNTLPYTFGQGTKLEIKGSTSGSGKPGSGEGSTKGQVQLQESGPGLVKPSGTLSLTCAVSGVSLPDYGVSWIRQPPGKGLEWIGVIWGSETTYYNSALKSRVTISRDNSKNTLYLQMNSLRAEDTAVYYCAKHYYYGGSYAMDYWGQGTLVTVSSHHHHHH reads 14.5

The measured geometric mean (FACS titration) associated with JS-scFv (scFv, leader left out here) scFv: DIQMTQSPSSLSASVGDRVTITCRASQDISKYLNWYQQKPDQAPKLLIKHTSRLHSGVPSRFSGSGSGTDYTLTISSLQPEDFATYYCQQGNTLPYTFGQGTKLEIKGSTSGSGKPGSGEGSTKGEVQLVESGGGLVQPGRSLRLSCTASGVSLPDYGVSWIRQPPGKGLEWIGVIWGSETTYYNSALKSRFTISRDNSKNTLYLQMNSLRAEDTAVYYCAKHYYYGGSYAMDYWGQGTLVTVSSHHHHHH reads 13.6

Further cases:
The measured geometric mean (FACS titration) associated with SS-scFv (scFv, leader left out here) scFv: DIQMTQSPSFLSASVGDRVTITCRASQDISKYLNWYQQKPDQAPKLLIKHTSRLHSGVPSRFSGSGSGTDFTFTISSLQPEDIATYYCQQGNTLPYTFGQGTKLEIKGSTSGSGKPGSGEGSTKGEVQLVESGGGLVQPGRSLRLSCTASGVSLPDYGVSWVRQPPGKGLEWIGVIWGSETTYYNSALKSRFTISRDNSKNTLYLQMNSLRAEDTAVYYCAKHYYYGGSYAMDYWGQGTLVTVSSHHHHHH reads 14.6

The origin of these recorded values is patent US20180312588A1.
